target: Heat shock protein HSP 90-alpha (Homo sapiens, UniProt P07900); experiment: Displacement of fluorescent labelled-VER00051001 from N-terminal ATP-binding site of human recombinant HSP90A expressed in Escherichia coli measured after 48 hrs by fluorescence polarization assay
pIC50: −log10 of the molar value.

# SMILES_RECORD, MEASUREMENT_QUALIFIER, pIC50
data = [
    ("COc1ccc([C@H]2c3cccc(c3O)NC(=O)/C(C)=C/C=C\\[C@H](OC)[C@@H](OC(N)=O)/C(C)=C/[C@H](C)[C@@H](O)[C@@H](OC)C[C@@H]2C)cc1", "=", 7.28),
    ("COc1ccc([C@H]2c3cccc(c3O)NC(=O)/C(C)=C/C=C\\[C@H](OC)[C@@H](OC(N)=O)/C(C)=C/[C@H](C)[C@@H](OC)[C@@H](OC)C[C@@H]2C)cc1", "=", 7.01),
    ("CO[C@H]1/C=C\\C=C(/C)C(=O)NC2=CC(=O)C=C(C2=O)[C@H](OC)[C@@H](C)C[C@H](OC)[C@H](O)[C@@H](C)/C=C(\\C)[C@@H]1OC(N)=O", "=", 7.77),
    ("COc1ccc([C@H]2c3cccc(c3O)NC(=O)/C(C)=C/CC[C@H](OC)[C@@H](OC(N)=O)/C(C)=C/[C@H](C)[C@@H](O)[C@@H](OC)C[C@@H]2C)cc1", "<", 6.00),
    ("COc1ccc([C@H]2c3cccc(c3O)NC(=O)/C(C)=C/CC[C@H](OC)[C@@H](OC(N)=O)/C(C)=C/[C@H](C)[C@@H](OC)[C@@H](OC)C[C@@H]2C)cc1", "<", 6.00),
]

* * *

target: UniProt:P07900; experiment: Displacement of fluorescent labelled-VER00051001 from N-terminal ATP-binding site of human recombinant HSP90A expressed in Escherichia coli measured after 29 hrs by fluorescence polarization assay
EXPERIMENTAL_ENDPOINT: IC50 (nM)

# COMPOUND, TGT, EXPERIMENTAL_ENDPOINT, DISPLAY_UNIT, MEASUREMENT_QUALIFIER, MEASURED_NUMBER
rows = [
    ("COc1ccc([C@H]2c3cccc(c3O)NC(=O)/C(C)=C/CC[C@H](OC)[C@@H](OC(N)=O)/C(C)=C/[C@H](C)[C@@H](OC)[C@@H](OC)C[C@@H]2C)cc1", "UniProt:P07900", "IC50", "nM", ">", 1000),
    ("COc1ccc([C@H]2c3cccc(c3O)NC(=O)/C(C)=C/C=C\\[C@H](OC)[C@@H](OC(N)=O)/C(C)=C/[C@H](C)[C@@H](OC)[C@@H](OC)C[C@@H]2C)cc1", "UniProt:P07900", "IC50", "nM", "=", 102),
    ("COc1ccc([C@H]2c3cccc(c3O)NC(=O)/C(C)=C/CC[C@H](OC)[C@@H](OC(N)=O)/C(C)=C/[C@H](C)[C@@H](O)[C@@H](OC)C[C@@H]2C)cc1", "UniProt:P07900", "IC50", "nM", ">", 1000),
    ("CO[C@H]1/C=C\\C=C(/C)C(=O)NC2=CC(=O)C=C(C2=O)[C@H](OC)[C@@H](C)C[C@H](OC)[C@H](O)[C@@H](C)/C=C(\\C)[C@@H]1OC(N)=O [HERBIMYCIN C]", "UniProt:P07900", "IC50", "nM", "=", 19.7),
    ("COc1ccc([C@H]2c3cccc(c3O)NC(=O)/C(C)=C/C=C\\[C@H](OC)[C@@H](OC(N)=O)/C(C)=C/[C@H](C)[C@@H](O)[C@@H](OC)C[C@@H]2C)cc1", "UniProt:P07900", "IC50", "nM", "=", 59.4),
]
